- assayProcedure: Extraction of acrylic acid and 3-hydroxypropionic acid from aqueous stock solutions using various extractants
- conditionDescription: Aqueous Stock Solution No. 1 (0.67 wt % AA, 1.34 wt % 3HP); 22° C.
measurementLabel: Acid in Aqueous Phase, wt % AA (wt %)
Report the value in wt % with no unit label.

# example entries with known answers
compound="CC(=O)OC(C)C [Isopropyl Acetate, Isopropyl acetate]" valuemeasured=0.24
compound="ClCCl [CH2Cl2, Methylene chloride]" valuemeasured=0.61
compound=CCCCCCCCCCO valuemeasured=0.31

Bench note: what Acid in Aqueous Phase, wt % AA did CC(C)OC(C)C show?
0.36

Bench note: what Acid in Aqueous Phase, wt % AA did CCC(=O)OC [Methyl Propionate, Methyl propionate] show?
0.24

Bench note: what Acid in Aqueous Phase, wt % AA did Cc1ccccc1 show?
0.69

Bench note: what Acid in Aqueous Phase, wt % AA did C=CC(=O)OC [Methyl Acrylate, Methyl acrylate] show?
0.25

Bench note: what Acid in Aqueous Phase, wt % AA did CC(=O)CC(C)C show?
0.23

Bench note: what Acid in Aqueous Phase, wt % AA did CCOC(C)=O [Ethyl Acetate, Ethyl acetate, reference compound] show?
0.20
